B1: OR4K15 (parent)
chain: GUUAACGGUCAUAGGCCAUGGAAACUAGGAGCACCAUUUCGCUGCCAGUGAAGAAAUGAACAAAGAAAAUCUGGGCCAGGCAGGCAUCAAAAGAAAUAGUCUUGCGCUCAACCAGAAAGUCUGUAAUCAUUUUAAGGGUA

# Variants of: B1
# PROCEDURE_TEXT: self-cleavage, relative activity (ratio to wild type); higher = more cleavage; in vitro, sequencing; the parent is a self-cleaving ribozyme
Quick rule: self-cleavage of at least 1 means TRUE, below that means FALSE.

Exercise: API: above_or_equal(metric=self-cleavage, cutoff=1) for item U12C A22U
Key: FALSE

Exercise: Evaluate A18U A91U : self-cleavage at minimum 1?
Key: TRUE

Exercise: Decide: self-cleavage of A24G A98C >= 1?
Key: TRUE

Exercise: Please indicate if the recorded self-cleavage for A56G U108C meets or exceeds 1.
Key: FALSE

Exercise: Dear colleague, could you confirm whether U120C has self-cleavage at or above 1?
Key: FALSE

Exercise: Does the reported self-cleavage for A18U A111U fall at or above the 1 mark?
Key: FALSE

Exercise: Please check the record A62U C85U and state if its self-cleavage is at or above 1.
Key: TRUE

Exercise: Determine whether this variant has self-cleavage no lower than 1: A4G U100C
Key: TRUE

Exercise: Check the entry A47G A89U : does self-cleavage equal or exceed 1?
Key: FALSE

Exercise: Say whether U2A A22G shows self-cleavage of 1 or more.
Key: TRUE
